Values were extracted from patent US20250270315A1.

STUDY_SYSTEM: human SIRPα v2 expressed on cells (CHOK1 stable line KYinno KC-1720) (human) (UniProt P78324)
PROTOCOL_DETAILS: FACS, CHOK1-hSIRPα v2 cells
METRIC: TOP MFI (MFI)
I only need the number, in MFI, no unit after it.

# input binder: 059c (antibody, V domains shown) VH: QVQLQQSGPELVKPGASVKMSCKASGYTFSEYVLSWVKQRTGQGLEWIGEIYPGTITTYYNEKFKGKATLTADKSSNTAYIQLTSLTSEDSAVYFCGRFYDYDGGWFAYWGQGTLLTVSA VL: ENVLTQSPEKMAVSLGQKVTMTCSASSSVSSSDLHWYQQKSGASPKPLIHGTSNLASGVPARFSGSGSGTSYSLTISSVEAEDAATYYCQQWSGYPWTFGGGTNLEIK ; wanted: its TOP MFI
19600
